system: L1210 cells; experiment: In vivo anti-tumor activity, L1210, single i.p. injection; parameters: species or system BDF1 mice; details: single i.p., 100 mg/kg
quantity: % T/C

The following compounds have reported results that may help.
{"columns": ["compound", "% T/C"],
 "data": [
  ["NC1CCCCC1N.O.O=C([O-])C1CCN1.O=C([O-])C1CCN1.[Pt+2] (centres unmarked)", "Toxic"],
  ["NC1CCCCC1N.O=C1OC(C(O)CO)C([O-])=C1O.O=C1OC(C(O)CO)C([O-])=C1O.[Pt+2] (mixture of isomers) [Compound 7, cis-bis-isoascorbato(DACH)Pt(II).3H2 O]", "196%"],
  ["NC1CCCCC1N.O.O.O=C([O-])C1=CC(O)C(O)C(O)C1.O=C([O-])C1=CC(O)C(O)C(O)C1.[Pt+2] (stereo not drawn) [Compound 10, cis-bis-shikimato(DACH)Pt(II).2H2 O]", "217%"],
  ["NC1CCCCC1N.O.O=C1OC(C(O)CO)C([O-])=C1O.O=C1OC(C(O)CO)C([O-])=C1O.[Pt+2] (stereo not drawn) [Compound 3, cis-bis-ascorbato(DACH)Pt(II).1H2 O]", "Toxic"]
]}

Task: // fetch % T/C given entry NC1CCCCC1N.O=C1OC(C(O)CO)C([O-])=C1O.O=C1OC(C(O)CO)C([O-])=C1O.[Pt+2] (stereo not drawn) [Compound 6, cis-bis-ascorbato(cis-DACH)Pt(II).5H2 O]
Output: Toxic

Cited source: patent US4661516A
